- ASSAY_NOTES: NCI Yeast Anticancer Drug Screen. Data for the rad50 strain (AID 155);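 further: 0% = growth of vehicle-only cultures of the same strain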
- CONDITION_LABEL: S. cerevisiae rad50 strain growth inhibition; at 5.0 µM (retest, dose inferred, filed as 0.5); hits give high values
Compounds without any hit were thinned out: in the full panel of roughly 79,000, 15% have a hit. The source made the active and inactive calls. No stated cut-off is given here; in the data, active means growth inhibition above about 70%; inactive means the rest.
Each entry below carries its recorded growth inhibition.

Answered cases to consult:
• CC(C)CCCC(C)C1CCC2C3CCC4=CC(O)CCC4(C)C3CCC12C (centres undefined) = -5% (inactive)
• O=C(/C=C/c1ccccc1)CCN1CCOCC1 = 21% (inactive)
• CN(C)CCCNc1c2ccccc2nc2ccc([N+](=O)[O-])cc12 = 16% (inactive)
• Cc1ccc(S(=O)(=O)Oc2ccc(C(C)(C)C)cc2Cl)cc1 = -8% (inactive)
• Nc1ccc(S(=O)(=O)NCc2nccs2)cc1 = -5% (inactive)
• CCn1c2ccccc2c2ccc(C3C(C(=O)OC)=C(C)NC(C)=C3C(=O)OC)cc21 = -3% (inactive)
• CC(=O)c1c(O)ccc2nc3ccccc3nc12 = 11% (inactive)
• O=C1C(Cl)=C(Cl)C(=O)C2CC=CCC12 (centres undefined) = 68% (inactive)

Moving on to another molecule below.
Entry `CSC1=NSC(c2ccccc2)=C(c2ccccc2)S1` , growth inhibition reported as 7% (inactive)

====

- ASSAY_NOTES: NCI Yeast Anticancer Drug Screen. Data for the mec2-1 strain (AID 157)
- CONDITION_LABEL: S. cerevisiae mec2-1 strain, at 50.0 µM
This is part of a sample that, as a whole, favours compounds with a hit. Of some 79,000 tested, about 15% had one in any assay. Active and inactive are the calls of the source. No stated cut-off is given here; in the data, active means growth inhibition above about 70%; inactive means the rest.
Tick one outcome: active, inactive

Past entries and their recorded results:
- C=C(C)COc1cc(NC(=S)OC(C)C)ccc1Cl: active
- NN(c1ccccc1)c1cccc2ccccc12: inactive
- C=CC1(c2ccc(OC)cc2)OCCCO1: active
- O=C(CC(=O)c1cccnc1)c1cccnc1: active

Turning now to a further compound:
Task: Please share the test call associated with `O=C(Nc1cc(-c2ccccc2)[nH]n1)c1ccccc1` .
Output: inactive

====

- ASSAY_NOTES: NCI Yeast Anticancer Drug Screen. Data for the rad50 strain (AID 155);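 further: 0% = growth of vehicle-only cultures of the same strain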
- CONDITION_LABEL: S. cerevisiae rad50 strain growth inhibition; at 50.0 µM (retest, dose inferred, filed as 5.0); hits give high values
This is part of a sample that, as a whole, favours compounds with a hit. Of some 79,000 tested, about 15% had one in any assay.
Given measured growth inhibition, output Criterion met if it is greater than or equal to 70% and Criterion not met if not.

Past entries and their recorded results:
- COc1cc(/C=C/C(=N\NC(=O)c2ccccc2)c2sc(Nc3ccc(Cl)c(Cl)c3)nc2C)ccc1O: Criterion not met
- CC(=O)NNc1nc(C)c(C(=O)NNC(=O)C(=O)Nc2c(C)cccc2C(C)C)s1: Criterion met
- O=C(NNc1ccccc1)c1cccc([N+](=O)[O-])c1: Criterion met
- CC(=O)/C(=C\c1c(Cl)cccc1Cl)C(=O)CCN(C)C: Criterion met
- Nc1nnc(CCC(=O)Nc2ccccc2Cl)o1: Criterion not met
- CCOC(=O)N/N=C/c1ccc([N+](=O)[O-])o1: Criterion not met

Task: Quick check: does `O=C1c2ccccc2C(=O)c2sc(Nc3ccc([N+](=O)[O-])cc3)nc21` have growth inhibition greater than or equal to 70%?
Output: Criterion met

Task: Quick check: does Cc1cc(Cl)cc2c1NC(=O)C2(O)C(C)C(=O)c1ccc(Cl)cc1 (configuration not stated) have growth inhibition greater than or equal to 70%?
Output: Criterion not met

Task: Quick check: does `CN=C(NC1CCCCC1)c1ccc(NC(=O)c2ccc(C(=O)Nc3ccc(C(=NC)NC4CCCCC4)cc3)cc2)cc1` have growth inhibition greater than or equal to 70%?
Output: Criterion met

Task: Quick check: does `CC1=C/C(=C\C=C2/N(C)c3c(C)cccc3C2(C)C)C(=O)c2ncccc21` have growth inhibition greater than or equal to 70%?
Output: Criterion met

Task: Quick check: does `Ic1ccc2c(c1)N(c1ccccc1)c1cc(N=c3ccc4nc5ccc(I)cc5n(-c5ccccc5)c-4c3)ccc1N2` have growth inhibition greater than or equal to 70%?
Output: Criterion not met

Task: Quick check: does `Cc1cc(=O)n(-c2ccc(F)cc2)n1C` have growth inhibition greater than or equal to 70%?
Output: Criterion not met
